Data provenance: ChEMBL document CHEMBL5724796

Assayed target: Mitogen-activated protein kinase 1 (Homo sapiens) (UniProt P28482)
Sequence (P28482 whole entry): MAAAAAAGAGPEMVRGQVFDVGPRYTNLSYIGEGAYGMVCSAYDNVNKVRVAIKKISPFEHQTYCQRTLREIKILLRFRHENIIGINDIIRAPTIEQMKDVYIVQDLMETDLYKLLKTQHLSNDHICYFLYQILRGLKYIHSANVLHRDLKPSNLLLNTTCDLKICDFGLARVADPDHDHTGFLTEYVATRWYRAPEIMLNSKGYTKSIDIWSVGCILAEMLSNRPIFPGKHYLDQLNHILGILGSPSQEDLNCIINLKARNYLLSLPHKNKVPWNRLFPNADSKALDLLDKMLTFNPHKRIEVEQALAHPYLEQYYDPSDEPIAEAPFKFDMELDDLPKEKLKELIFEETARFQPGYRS
Experimental conditions: Compound concentration 20.0 uM
Description: Thermal Shift Assay. Domain: start/stop: M1-S360
Residues, ends and D or L forms follow the SMILES beside them. *: point of attachment. Cbz = O=C(OCc1ccccc1)*; CH2F = FC*
Classify by measured ΔTm: Met if it is equal to or exceeds 0 °C, Not met if it is smaller.

CN(C)CCCCC(=O)Nc1ccc(NC(=S)NC(=O)c2ccc(C(C)(C)C)cc2)cc1 = Met
CNCc1ccc(-c2cc3cc(F)cc(C(N)=O)c3o2)cc1 = Met
N#Cc1ccc(Nc2cnccc2SCc2ccccc2C(=O)O)c2ccccc12 = Met

Could you please find out whether CC(C)CCn1c(CN2CCN(C(=O)C3CC3)CC2)nc2c1c(=O)n(C)c(=O)n2C has ΔTm that meets 0 °C or exceeds it?
Met

# bool: ΔTm of O=C(NC(Cc1ccccc1)C(=O)NC(Cc1ccccc1)C(=O)CF)OCc1ccccc1 (stereo not drawn) (Cbz-Phe-Phe-CH2F; configuration not given here) >= 0 °C
Met

Does the reported ΔTm for C[C@@H]1O[C@@H](CC(=O)O)CC2=C1C(=O)c1c(O)cccc1C2=O fall at or above the 0 °C mark?
Not met

* * *

Assayed target: Aurora kinase A (Homo sapiens)
Sequence (whole entry): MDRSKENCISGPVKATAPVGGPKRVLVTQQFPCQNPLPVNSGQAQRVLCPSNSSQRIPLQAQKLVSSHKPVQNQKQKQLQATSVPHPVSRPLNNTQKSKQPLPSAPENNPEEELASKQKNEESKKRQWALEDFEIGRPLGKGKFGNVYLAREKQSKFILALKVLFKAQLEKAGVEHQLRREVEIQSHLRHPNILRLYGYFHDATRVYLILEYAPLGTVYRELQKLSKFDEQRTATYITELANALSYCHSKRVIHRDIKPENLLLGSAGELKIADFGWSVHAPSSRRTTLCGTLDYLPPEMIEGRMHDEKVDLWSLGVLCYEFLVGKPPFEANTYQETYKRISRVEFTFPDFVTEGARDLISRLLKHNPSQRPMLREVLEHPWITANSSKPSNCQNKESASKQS
Experimental conditions: Compound concentration 20.0 uM
Description: Thermal Shift Assay. Domain: start/stop: E122-S403
Recorded metric: ΔTm
Include the unit right after the number.

The recorded ΔTm for entry CC(c1cccc2ccccc12)n1cnc2c(=O)[nH]c(Cc3ccccc3)nc21 (stereo not drawn) equals -3.08 °C

Measured ΔTm of Cc1ncsc1-c1ccc(CNC(=O)[C@@H]2C[C@@H](O)CN2C(=O)[C@@H](NC(=O)COCCOCCOc2ccc(-c3ccc4ncnc(Nc5ccc(OCc6cccc(F)c6)c(Cl)c5)c4c3)cc2)C(C)(C)C)cc1 : 7.09 °C

Please fill in: ΔTm reported for O=C(NCc1ccc(F)cc1)C1CCN(S(=O)(=O)c2cc(Cl)cc(Cl)c2)CC1 = -1.86 °C

* * *

Measured ΔTm by item
Assayed target: Cyclin-dependent kinase 2 (Homo sapiens) (UniProt P24941)
Experimental conditions: Compound concentration 20.0 uM
Description: Thermal Shift Assay. Domain: start/stop: M1-L298
Please answer in the form of a number followed by its unit of measurement.

COc1ccc(OC)c(-c2nnc3n2N=C(c2ccc(OC)c(OC)c2)CS3)c1 = -0.04 °C
COc1cccc(-c2nccc3c2CN(c2ccccc2)C3=O)c1 = -1.3 °C
Cc1nc(F)ccc1-c1cc(Cn2ccn(C)c2=N)cc(C(=O)NCc2ccc(Cl)c(Cl)c2)c1 = -0.77 °C
C[C@H](Nc1nc2c(cnn2C2CCCC2)c(=O)[nH]1)c1ccc(Cl)cc1 = -1 °C
CCC(CC)N(CCN(C)C(=O)CCC(=O)O)Cc1cccc(C(=O)Nc2sc3c(c2C(=O)c2cnn(-c4ccc(Cl)c(C(F)(F)F)c4)c2)CCC(C)(C)C3)c1 = -0.99 °C

Shift focus to the following entry.
// N=C(N)SCc1ccc(CN2C(=O)C(=O)c3cc(C(F)(F)F)ccc32)cc1 : ΔTm value = 0.03 °C
